- target: Serine/threonine-protein kinase PLK2 (Homo sapiens) (UniProt Q9NYY3)
- Sequence (Q9NYY3 whole entry, looked up): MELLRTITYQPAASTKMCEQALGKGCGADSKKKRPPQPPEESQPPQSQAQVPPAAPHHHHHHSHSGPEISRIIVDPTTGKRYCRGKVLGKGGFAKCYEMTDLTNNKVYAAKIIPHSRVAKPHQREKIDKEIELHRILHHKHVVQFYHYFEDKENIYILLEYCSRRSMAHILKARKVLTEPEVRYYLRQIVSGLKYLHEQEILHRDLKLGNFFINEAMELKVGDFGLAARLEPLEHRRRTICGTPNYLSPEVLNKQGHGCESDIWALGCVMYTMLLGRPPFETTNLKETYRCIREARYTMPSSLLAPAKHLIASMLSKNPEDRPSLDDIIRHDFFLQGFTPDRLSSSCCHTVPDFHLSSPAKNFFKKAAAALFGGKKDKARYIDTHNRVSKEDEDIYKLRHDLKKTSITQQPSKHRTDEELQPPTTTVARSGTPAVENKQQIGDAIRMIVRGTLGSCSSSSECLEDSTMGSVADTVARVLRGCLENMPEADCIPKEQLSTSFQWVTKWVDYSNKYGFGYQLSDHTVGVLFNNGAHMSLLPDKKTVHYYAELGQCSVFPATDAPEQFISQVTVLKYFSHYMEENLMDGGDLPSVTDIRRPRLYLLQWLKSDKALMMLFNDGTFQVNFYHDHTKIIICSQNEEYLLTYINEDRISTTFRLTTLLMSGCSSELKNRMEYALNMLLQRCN
- settings: at 10 µM
- Description: Millipore: Percentage of residual kinase activity of PLK2 at 10uM relative to control. Control inhibitor: Phosphoric acid* at 0.3uM. Buffer: 8 mM MOPS pH 7.0, 0.2 mM EDTA
measurement-label: residual activity (%)
Numbers only, in %.

Would you please look over these solved cases?
Which value of residual activity has been reported for `CCn1cnc2c(Nc3cccc(Cl)c3)nc(N[C@@H]3CCCC[C@@H]3N)nc21` in the records? 54

What do you get for `O=[N+]([O-])/C=C/c1ccc2c(c1)OCO2` ? 102

What do you get for `O=C1c2ccccc2-c2nc3nnnn3nc21` ? 34

What do you get for `COc1cc2ncnc(Nc3ccc(OCc4ccccc4)cc3)c2cc1OC` ? 105

Okay, here is my list. What is residual activity for each of these?
1. O=C1Nc2ccc3ncsc3c2/C1=C/c1c[nH]cn1
2. COC(=O)[C@@]1(O)C[C@H]2O[C@]1(C)n1c3ccccc3c3c4c(c5c6ccccc6n2c5c31)C(=O)NC4
3. COc1ccc2c(c[n+](C)c3c4cc5c(cc4ccc23)OCO5)c1OC
4. COc1cc(OC)c(/C=C2\C(=O)Nc3ccccc32)c(OC)c1

17
36
71
92

Which value of residual activity has been reported for `O=c1[nH]c2ccccc2n1C1CCN(Cc2ccc(-c3nc4cc5[nH]cnc5cc4nc3-c3ccccc3)cc2)CC1` in the records? 92
